Biological target: c-Met kinase domain recombinant protein (Homo sapiens, UniProt P08581)
Construct: 50 μL diluted solution of c-Met kinase domain recombinant protein in reaction buffer was added to initiate the reaction
Sequence (P08581 1078-1345 limits assumed): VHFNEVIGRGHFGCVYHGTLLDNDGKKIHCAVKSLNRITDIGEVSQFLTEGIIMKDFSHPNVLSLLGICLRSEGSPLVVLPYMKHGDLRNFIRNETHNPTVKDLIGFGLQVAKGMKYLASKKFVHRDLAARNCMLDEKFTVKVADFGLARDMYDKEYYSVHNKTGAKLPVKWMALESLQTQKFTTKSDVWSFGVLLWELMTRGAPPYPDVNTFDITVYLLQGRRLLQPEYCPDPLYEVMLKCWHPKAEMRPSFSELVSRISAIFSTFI
Test: biochemical
Details: read-out: Average inhibition rate at 1 μM (%)
Protocol: Enzymatic reaction substrate Poly(Glu,Tyr)4:1 was diluted to 20 μg/mL in potassium ion free PBS (10 mM sodium phosphate buffer, 150 mM NaCl, pH7.2-7.4), microplate was coated with this solution at 125 μL per well, and reacted at 37° C. for 12-16 hours. […] The plate was washed three times with T-PBS. […] Reaction was terminated by adding 50 μL per well of 2M H2SO4, the plate was read at 490 nm using a SPECTRA MAX 190 microplate reader with tunable wavelength. […]
Quantity name: inhibition at 1 µM (%)

Example compounds with recorded inhibition at 1 µM:
Compound	inhibition at 1 µM / %
O=C(C1CC1)N1CCC(n2cc(-c3cnc4cnn(S(=O)(=O)c5cnc6ccccn56)c4c3)cn2)CC1 [Example 55]	58.3
Cn1cc(-c2cnc3cnn(S(=O)(=O)c4cnc5cccnn45)c3c2)cn1 [Example 21]	59.7
CC(C)(C)OC(=O)N1CCC(n2cc(-c3cnc4cnn(S(=O)(=O)c5cnc6ccc(Cl)nn56)c4c3)cn2)CC1 [Example 61]	76
CCC(=O)Nc1cnc2cnn(S(=O)(=O)c3cnc4ccc(Br)cn34)c2c1 [Example 132]	100
CN1CCN(C(=O)c2ccc(-c3cnc4cnn(S(=O)(=O)c5cnc6ccccn56)c4c3)cc2)CC1 [Example 37]	63.8

(1) Cn1cc(-c2cnc3cnn(S(=O)(=O)c4cccc(C(F)(F)F)c4)c3c2)cn1 [Compound 16]
(2) CC(C)N1CCC(n2cc(-c3cnc4cnn(S(=O)(=O)c5cnc6ccc(-c7cnn(C)c7)cn56)c4c3)cn2)CC1 [Example 145]
(3) Nc1ccc2ncc(S(=O)(=O)n3ncc4ncc(-c5cc(Cl)cc(Cl)c5)cc43)n2c1 [Example 114]
Query string: Please list these compounds in decreasing order of inhibition at 1 µM. Put the labels in the requested order and write them down.
Result string: 2, 1, 3
(2: 87.1%, 1: 56.1%, 3: 30.4%)

----------
System: EBC-1 cell
Experiment: Test III: growth inhibition of non-small cell carcinoma EBC-1 cell (SRB)
Format: cell-based
Conditions: Homo sapiens, EBC-1, 72 h, read-out: Cell proliferation inhibition rate at 1 μM (%)
Text: Assays on the growth inhibition of the compounds against gastric tumor cell MKN45, non-small cell carcinoma EBC-1 cell (both are MET persistent activated cell lines due to MET gene amplification, and are Met dependent tumor cell lines, MKN45 cell was purchased from JCRB, Japan, EBC-1 cell was purchased from ATCC, USA) were detected using sulforhodamine B (SRB) staining. […]
Quantity name: inhibition at 1 µM (%)
Entry rule: numbers only, all in %.

Molecule	Target entity	Measurement
CC(C)N1CC=C(c2cnc3cnn(S(=O)(=O)c4cnc5ccc(-c6cnn(C)c6)cn45)c3c2)CC1	EBC-1 cell	92.4

Query string: Return value of inhibition at 1 µM for input O=S(=O)(c1cnc2ccc(-c3cn[nH]c3)cn12)n1ncc2ncc(-c3cn[nH]c3)cc21 , no commentary.
Result string: 89.2

Query string: # return recorded inhibition at 1 µM for entry Cn1cc(-c2ccc3ncc(S(=O)(=O)n4ncc5ncc(-c6ccccc6)cc54)n3c2)cn1
Result string: 91.4

Query string: Give the measured inhibition at 1 µM for Cn1cc(-c2ccc3ncc(S(=O)(=O)n4ncc5ncc(-c6cnn(C7CCN(C8CCCC8)CC7)c6)cc54)n3c2)cn1
Result string: 92.4

Query string: Give me measured inhibition at 1 µM, please, for this compound: CC(C)c1c(-c2cnn(C)c2)cnc2cnn(S(=O)(=O)c3cnc4ccc(-c5cnn(C)c5)cn34)c12
Result string: 92.7

Query string: Respond only with inhibition at 1 µM recorded for Cn1cc(-c2ccc3ncc(S(=O)(=O)n4ncc5ncc(C6=CCN(C7CCCC7)CC6)cc54)n3c2)cn1
Result string: 91.4

Query string: Quote inhibition at 1 µM reported for Cn1cc(-c2ccc3ncc(S(=O)(=O)n4ncc5ncc(-c6ccc(CN7CCOCC7)cc6)cc54)n3c2)cn1 please.
Result string: 92.5

Query string: Item Cn1cc(-c2ccc3ncc(S(=O)(=O)n4ncc5ncc(NC(=O)c6ccccc6)cc54)n3c2)cn1 : provide inhibition at 1 µM
Result string: 87.8

Query string: State its inhibition at 1 µM for this compound: CCN1CCC(n2cc(-c3cnc4cnn(S(=O)(=O)c5cnc6ccc(-c7cnn(C)c7)cn56)c4c3)cn2)CC1
Result string: 92.9

Query string: Report inhibition at 1 µM, nothing else, for this compound: Cn1cc(-c2cnc3cnn(S(=O)(=O)c4cnc5ccc(OC(=O)c6ccco6)cn45)c3c2)cn1
Result string: 86.6

----------
Target: c-Met kinase domain recombinant protein (Homo sapiens, UniProt P08581)
Construct: 50 μL diluted solution of c-Met kinase domain recombinant protein in reaction buffer was added to initiate the reaction
Test: biochemical
Conditions: read-out: Average inhibition rate at 1 μM (%)
Quantity name: inhibition at 1 µM (%)

Answered examples (4):
Molecule	inhibition at 1 µM, %
Cn1cc(-c2cnc3cnn(S(=O)(=O)c4cnc5ccc(-c6cc(F)c(F)c(F)c6)cn45)c3c2)cn1	59.4
O=S(=O)(c1cnc2ccc(O)cn12)n1ncc2ncc(-c3ccccc3)cc21	99
O=S(=O)(c1cnc2cccnn12)n1ncc2ncc(-c3cnn(C4CCNCC4)c3)cc21	66.7
O=C(C1CCCCC1)N1CCC(n2cc(-c3cnc4cnn(S(=O)(=O)c5cnc6ccccn56)c4c3)cn2)CC1	54.5

(a) O=S(=O)(c1cnc2ccccn12)n1ncc2ncc(-c3ccc(C(F)(F)F)cc3)cc21
(b) CC(C)Oc1ccc(-c2ccc3ncc(S(=O)(=O)n4ncc5ncc(-c6cnn(C)c6)cc54)n3c2)cc1
(c) Cn1cc(-c2ccc3ncc(S(=O)(=O)n4ncc5ncc(-c6cnn(C7CCNCC7)c6)cc54)n3c2)cn1
Query string: Sort the molecules on inhibition at 1 µM; start with the lowest figure. To answer, write out the labels according to the requested order.
Result string: b, a, c

----------
Molecular target: c-Met kinase domain recombinant protein (Homo sapiens, UniProt P08581)
Construct: 50 μL diluted solution of c-Met kinase domain recombinant protein in reaction buffer was added to initiate the reaction
Test: biochemical
Conditions: read-out: Inhibition rate at 10 μM (%)
Quantity name: inhibition at 10 µM (%)

Examples from the recorded data:
Molecule	Quantity name	Unit of measurement	Measurement
O=S(=O)(c1cnc2ccccn12)n1ncc2ncc(-c3cccnc3)cc21	inhibition at 10 µM	%	71
Cn1cc(-c2cnc3cnn(S(=O)(=O)c4ccccc4[N+](=O)[O-])c3c2)cn1	inhibition at 10 µM	%	84.6

(1) O=S(=O)(c1cnc2ccccn12)n1ncc2ncc(-c3ccc(N4CCOCC4)cc3)cc21
(2) Cn1cc(-c2cnc3cnn(S(=O)(=O)c4ccc([N+](=O)[O-])cc4)c3c2)cn1
Query string: Recorded inhibition at 10 µM values differ for 1 and 2 ; which one is higher? // return label of chosen record
Result string: 1
(1: 68.8%, 2: 22%)

----------
Target: c-Met kinase domain recombinant protein (Homo sapiens, UniProt P08581)
Construct: 50 μL diluted solution of c-Met kinase domain recombinant protein in reaction buffer was added to initiate the reaction
Assay: biochemical
Conditions: read-out: Average inhibition rate at 10 μM (%)
Quantity name: inhibition at 10 µM (%)

Examples with answers:
Molecule	Quantity name	Measurement
Cn1cc(-c2cnc3cnn(S(=O)(=O)c4cnc5cccnn45)c3c2)cn1	inhibition at 10 µM	77.9
CN(C)c1ccc(-c2ccc3ncc(S(=O)(=O)n4ncc5ncc(-c6cnn(C)c6)cc54)n3c2)cc1	inhibition at 10 µM	79.4
Cn1cc(-c2cnc3[nH]nc(S(=O)(=O)c4ccccc4[N+](=O)[O-])c3c2)cn1	inhibition at 10 µM	92.8

(P) Cn1cc(-c2cnc3cnn(S(=O)(=O)c4cnc5ccc(Cl)nn45)c3c2)cn1
(Q) O=S(=O)(c1cnc2ccccn12)n1ncc2ncc(-c3ccc4ccccc4c3)cc21
Query string: # query: argmin of inhibition at 10 µM over P and Q API: response body contains the label of the selected item.
Result string: Q
(Q: 53.7%, P: 86.2%)

----------
Tested on: BaF3/TPR-Met cell
Assay: Test III: growth inhibition of engineered BaF3/TPR-Met cells (MTT)
Type: cell-based
Conditions: Mus musculus, BaF3, 72 h, read-out: Cell proliferation inhibition rate at 200 nM (%)
Below: a set of entries, each annotated with reported inhibition at 0.2 µM.
Report the value in % with no unit label.

Take a look at these entries with their results.
Molecule	Quantity name	Measurement
Cn1cc(-c2cnc3cnn(S(=O)(=O)c4cnc5ccc(Cl)nn45)c3c2)cn1	inhibition at 0.2 µM	36.3
Cn1cc(-c2cnc3cnn(S(=O)(=O)c4cccc5nonc45)c3c2)cn1	inhibition at 0.2 µM	3.2
Cn1cc(-c2cnc3cnn(S(=O)(=O)c4c(Cl)nc5sccn45)c3c2)cn1	inhibition at 0.2 µM	1.8
O=C(C1CC1)N1CCC(n2cc(-c3cnc4cnn(S(=O)(=O)c5cnc6ccccn56)c4c3)cn2)CC1	inhibition at 0.2 µM	89.3
O=S(=O)(c1cnc2ccccn12)n1ncc2ncc(-c3ccc(N4CCOCC4)cc3)cc21	inhibition at 0.2 µM	74.4
Cn1cc(-c2cnc3cnn(S(=O)(=O)c4cnc5ccc(Cl)cn45)c3c2)cn1	inhibition at 0.2 µM	65.9

Consider the additional compound presented here.
Query string: Determine from records and report inhibition at 0.2 µM for O=S(=O)(c1cnc2ccccn12)n1ncc2ncc(-c3cnn(C4CCNCC4)c3)cc21
Result string: 27.9
